# Target desc: PTK2 (Homo sapiens)
# Construct: purchased Invitrogen PV3832
# Sequence (Q05397 whole entry): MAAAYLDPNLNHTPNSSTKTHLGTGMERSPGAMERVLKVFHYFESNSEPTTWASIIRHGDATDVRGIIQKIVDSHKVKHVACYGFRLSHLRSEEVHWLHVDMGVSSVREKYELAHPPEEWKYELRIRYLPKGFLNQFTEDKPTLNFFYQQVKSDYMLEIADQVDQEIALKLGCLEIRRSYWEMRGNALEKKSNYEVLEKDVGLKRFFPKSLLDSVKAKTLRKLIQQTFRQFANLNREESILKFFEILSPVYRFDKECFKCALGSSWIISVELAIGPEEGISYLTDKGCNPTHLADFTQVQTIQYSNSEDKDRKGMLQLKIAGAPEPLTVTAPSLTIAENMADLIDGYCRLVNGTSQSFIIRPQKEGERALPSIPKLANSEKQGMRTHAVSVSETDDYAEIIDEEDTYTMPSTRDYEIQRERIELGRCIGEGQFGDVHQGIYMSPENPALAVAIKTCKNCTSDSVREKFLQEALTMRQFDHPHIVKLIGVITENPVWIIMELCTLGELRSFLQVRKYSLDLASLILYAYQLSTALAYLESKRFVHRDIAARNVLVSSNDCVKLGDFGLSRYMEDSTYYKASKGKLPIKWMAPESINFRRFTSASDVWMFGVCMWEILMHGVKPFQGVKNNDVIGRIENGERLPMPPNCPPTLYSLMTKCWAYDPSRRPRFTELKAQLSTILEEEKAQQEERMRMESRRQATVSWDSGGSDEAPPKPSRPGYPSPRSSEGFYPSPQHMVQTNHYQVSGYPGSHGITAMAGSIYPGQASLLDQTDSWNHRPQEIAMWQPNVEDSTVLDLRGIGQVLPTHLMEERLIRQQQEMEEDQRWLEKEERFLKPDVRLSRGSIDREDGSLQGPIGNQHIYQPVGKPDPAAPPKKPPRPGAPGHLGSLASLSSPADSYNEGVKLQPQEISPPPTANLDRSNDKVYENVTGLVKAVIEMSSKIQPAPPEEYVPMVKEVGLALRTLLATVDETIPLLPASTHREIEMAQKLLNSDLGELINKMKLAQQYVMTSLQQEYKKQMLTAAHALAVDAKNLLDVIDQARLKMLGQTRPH
# Run description: PTK2 enzyme test Assay 1 (DELFIA, poly-Glu-Tyr substrate, PT60 antibody)
# Assay type: biochemical
# Run parameters: Assay 1 (values without *); 1 h pre-incubation, 50 μM ATP mix, final DMSO 2%
Define the label as satisfied when IC50 is strictly less than 2 nM and as not satisfied in all remaining cases.

Record excerpt, results attached:
COc1cc(C(=O)NC2CCCN(C)C2)ccc1Nc1ncc(C(F)(F)F)c(N[C@@H]2Cc3ccccc3[C@H]2N(C)S(C)(=O)=O)n1 (some centres unmarked) [Example I-6]; satisfied
COc1cc(C(=O)NC2CCC(N3CCOCC3)CC2)ccc1Nc1ncc(C(F)(F)F)c(N[C@@H]2Cc3ccccc3[C@H]2NC(C)=O)n1 (some centres unmarked) [Example I-19]; not satisfied
COc1cc(C(=O)NCCN(C)C)ccc1Nc1ncc(C(F)(F)F)c(N[C@@H]2Cc3ccccc3[C@H]2NC(C)=O)n1 [Example I-20]; satisfied
COc1cc(C(=O)NC2CCN(C)CC2)c(C)cc1Nc1ncc(C(F)(F)F)c(N[C@@H]2Cc3ccccc3[C@H]2N(C)S(C)(=O)=O)n1 [Example I-53]; satisfied
COc1cc(C(=O)NCCN(C)C)ccc1Nc1ncc(C(F)(F)F)c(N[C@@H]2Cc3ccccc3[C@H]2N(C)S(C)(=O)=O)n1 [Example I-52]; satisfied

Prompt: Dear colleague, could you confirm whether IC50 of COc1cc(C(=O)NC2CCC(N3CCN(CC4CC4)CC3)CC2)ccc1Nc1ncc(C(F)(F)F)c(N[C@@H]2Cc3ccccc3[C@H]2NC(C)=O)n1 (some centres unmarked) [Example I-12] falls below 2 nM? Thanks.
Completion: not satisfied

Prompt: Is IC50 strictly under 2 nM for the entry COc1cc(C(=O)NOCCN(C)C)ccc1Nc1ncc(C(F)(F)F)c(N[C@@H]2Cc3ccccc3[C@H]2N(C)S(C)(=O)=O)n1 [Example I-59] ?
Completion: satisfied

Prompt: is_below(IC50, 2 nM) for CNCc1ccc(Nc2ncc(C(F)(F)F)c(N[C@@H]3Cc4ccccc4[C@H]3N(C)S(C)(=O)=O)n2)c(OC)c1 [Example I-71] ?
Completion: satisfied

Prompt: Does this compound meet the criterion IC50 < 2 nM? COc1cc(N2CCN(C)CC2)ccc1Nc1ncc(C(F)(F)F)c(N[C@@H]2Cc3ccccc3[C@H]2N(C)S(C)(=O)=O)n1 [Example I-39]
Completion: not satisfied

Source of measurements: patent US8410126B2
